Measured log10 IC50, listed per entry for reference.
biological target: Intercellular adhesion molecule (ICAM-1), Integrin alpha-L/beta-2 (Homo sapiens, UniProt P05107+P20701); assay: Ability to block the adherence of leukocyte function-associated antigen-1 (LFA-1) expressing JY-8 cells and intercellular adhesion molecule (ICAM-1) by 50% in absence of serum; type: cell-based
Sequence (P20701 whole entry): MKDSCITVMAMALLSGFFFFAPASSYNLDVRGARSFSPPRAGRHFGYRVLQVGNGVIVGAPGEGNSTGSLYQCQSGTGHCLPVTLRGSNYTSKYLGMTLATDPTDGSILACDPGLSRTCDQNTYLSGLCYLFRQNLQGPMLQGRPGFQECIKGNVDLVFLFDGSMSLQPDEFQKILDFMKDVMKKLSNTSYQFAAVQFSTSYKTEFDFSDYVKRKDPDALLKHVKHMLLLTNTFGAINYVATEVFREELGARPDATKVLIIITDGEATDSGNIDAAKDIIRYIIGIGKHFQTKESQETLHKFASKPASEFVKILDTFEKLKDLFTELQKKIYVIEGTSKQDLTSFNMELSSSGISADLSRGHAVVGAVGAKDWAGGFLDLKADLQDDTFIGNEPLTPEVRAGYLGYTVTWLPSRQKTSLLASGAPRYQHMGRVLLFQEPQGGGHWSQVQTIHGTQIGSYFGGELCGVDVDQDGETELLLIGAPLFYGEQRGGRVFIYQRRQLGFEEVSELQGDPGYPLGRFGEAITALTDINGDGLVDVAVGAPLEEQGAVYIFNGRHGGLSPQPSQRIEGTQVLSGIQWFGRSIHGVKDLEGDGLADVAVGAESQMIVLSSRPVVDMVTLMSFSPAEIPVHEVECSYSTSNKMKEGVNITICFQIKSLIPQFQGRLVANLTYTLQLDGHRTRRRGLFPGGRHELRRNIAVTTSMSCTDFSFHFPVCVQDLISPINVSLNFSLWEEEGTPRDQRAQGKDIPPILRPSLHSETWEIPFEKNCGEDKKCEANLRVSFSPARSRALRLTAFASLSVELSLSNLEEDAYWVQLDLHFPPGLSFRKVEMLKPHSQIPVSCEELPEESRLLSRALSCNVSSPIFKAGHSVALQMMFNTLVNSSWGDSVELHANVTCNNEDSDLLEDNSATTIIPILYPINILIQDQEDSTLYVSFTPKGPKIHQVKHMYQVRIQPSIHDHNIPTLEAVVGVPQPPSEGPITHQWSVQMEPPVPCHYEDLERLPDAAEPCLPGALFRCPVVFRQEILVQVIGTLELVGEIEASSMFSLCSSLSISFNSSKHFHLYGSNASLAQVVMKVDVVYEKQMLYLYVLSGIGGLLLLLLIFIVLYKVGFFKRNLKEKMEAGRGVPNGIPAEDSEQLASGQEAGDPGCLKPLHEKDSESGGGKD
Sequence (P05362 whole entry, further chain): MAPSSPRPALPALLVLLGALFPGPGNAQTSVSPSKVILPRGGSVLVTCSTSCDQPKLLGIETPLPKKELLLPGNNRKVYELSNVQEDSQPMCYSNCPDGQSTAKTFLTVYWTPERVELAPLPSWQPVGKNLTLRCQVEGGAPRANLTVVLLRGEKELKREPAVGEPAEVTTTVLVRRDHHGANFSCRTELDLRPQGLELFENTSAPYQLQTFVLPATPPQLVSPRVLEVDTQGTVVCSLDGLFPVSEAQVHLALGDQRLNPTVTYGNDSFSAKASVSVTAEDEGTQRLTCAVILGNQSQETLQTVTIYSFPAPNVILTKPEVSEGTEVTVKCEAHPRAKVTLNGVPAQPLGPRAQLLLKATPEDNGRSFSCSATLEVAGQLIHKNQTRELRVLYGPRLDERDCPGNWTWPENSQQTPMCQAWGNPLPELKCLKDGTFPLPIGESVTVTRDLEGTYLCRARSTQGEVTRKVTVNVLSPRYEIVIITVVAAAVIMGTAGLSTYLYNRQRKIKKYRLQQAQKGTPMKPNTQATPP
Sequence (P05107 whole entry): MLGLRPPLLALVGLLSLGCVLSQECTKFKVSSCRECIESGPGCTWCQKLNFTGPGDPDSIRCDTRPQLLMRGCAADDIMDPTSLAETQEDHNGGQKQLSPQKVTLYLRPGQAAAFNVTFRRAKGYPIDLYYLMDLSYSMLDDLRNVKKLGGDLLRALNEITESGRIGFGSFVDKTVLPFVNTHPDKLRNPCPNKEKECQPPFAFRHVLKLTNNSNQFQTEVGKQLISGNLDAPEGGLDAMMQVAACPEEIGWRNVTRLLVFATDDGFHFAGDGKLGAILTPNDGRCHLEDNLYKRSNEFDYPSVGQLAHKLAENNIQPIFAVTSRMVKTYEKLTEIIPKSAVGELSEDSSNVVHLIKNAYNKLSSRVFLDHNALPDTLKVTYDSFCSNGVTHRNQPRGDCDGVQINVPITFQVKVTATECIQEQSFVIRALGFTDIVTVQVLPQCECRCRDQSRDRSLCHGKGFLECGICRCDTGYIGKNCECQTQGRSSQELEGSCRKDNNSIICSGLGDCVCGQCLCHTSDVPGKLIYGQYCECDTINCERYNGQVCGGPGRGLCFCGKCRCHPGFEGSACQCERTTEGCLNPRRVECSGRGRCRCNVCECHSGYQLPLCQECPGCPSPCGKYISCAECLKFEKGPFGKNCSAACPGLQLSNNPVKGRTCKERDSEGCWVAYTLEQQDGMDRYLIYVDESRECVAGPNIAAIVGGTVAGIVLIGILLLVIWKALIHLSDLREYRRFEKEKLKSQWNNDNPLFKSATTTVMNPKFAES
Annotation: log10 of IC50, nM basis.

CC(C)c1ccccc1Sc1ccc(C2CC2C(=O)N2CCCC(C(=O)O)C2)c(Cl)c1Cl (stereo in doubt); 1.23
CC(C)c1ccccc1Sc1ccc(C2CC2C(=O)N2CCCCC2C(=O)O)c(Cl)c1Cl (single isomer, unassigned); 1.52
O=C(O)C1CCCN(c2ccccc2Sc2ccc(C3CC3C(=O)NCCCN3CCCC3=O)c(Cl)c2Cl)C1 (stereo in doubt; 30); 0.70

Input: Report log10 IC50, nothing else, for this molecule: O=C(NCCCN1CCCC1=O)C1CC1c1ccc(Sc2ccccc2N2CCOCC2)c(C(F)(F)F)c1 (stereo not given)
Output: 1.18

Input: Report log10 IC50, nothing else, for this molecule: CCOC(=O)C1CCCN(c2ccccc2Sc2ccc(C3CC3C(=O)NCCCN3CCCC3=O)cc2C(F)(F)F)C1 (stereo not given)
Output: 2.00

Input: Report log10 IC50, nothing else, for this molecule: CC(C)c1ccccc1Sc1ccc(C2CC2C(=O)N2CCC(C(=O)O)CC2)c(Cl)c1Cl (stereo in doubt; 18a)
Output: 0.95

Input: Report log10 IC50, nothing else, for this molecule: CN1CCN(c2ccccc2Sc2ccc(C3CC3C(=O)NCCCN3CCCC3=O)cc2C(F)(F)F)CC1 (stereo not given)
Output: 2.30

Input: Report log10 IC50, nothing else, for this molecule: O=C(O)C1CCCN(c2ccccc2Sc2ccc(C3CC3C(=O)NCCCN3CCCC3=O)c(Cl)c2Cl)C1 (stereo in doubt; 27)
Output: 1.18

Input: Report log10 IC50, nothing else, for this molecule: CC(C)c1ccccc1Sc1ccc(C2CC2C(=O)NCC(=O)O)c(Cl)c1Cl (stereo in doubt; 13a)
Output: 1.08

Input: Report log10 IC50, nothing else, for this molecule: O=C(O)C1CCCN(c2ccccc2Sc2ccc(C3CC3C(=O)NCCCN3CCCC3=O)c(Cl)c2Cl)C1 (stereo in doubt; 28)
Output: 1.00

###

experiment: Oral bioavailability of compound at 5 mg/kg after po administration was determined in rat; assay type: ADME, organism-based; conditions: in vivo
Measured parameter: bioavailability
Reply with a number, then the unit it belongs to.

Input: Report bioavailability, nothing else, for this compound: O=C(O)C1CCCN(c2ccccc2Sc2ccc(C3CC3C(=O)NCCCN3CCCC3=O)c(Cl)c2Cl)C1 (stereo in doubt; 28)
Output: 27%

###

biological target: Intercellular adhesion molecule (ICAM-1), Integrin alpha-L/beta-2 (Homo sapiens) (UniProt P20701+P05362+P05107); conditions: 50% FBS
Description: 80% inhibition of JY-8 cell adhesion to ICAM-1 via leukocyte function-associated antigen-1 (LFA-1) with 50% FBS
Measured parameter: IC80

Please review the entries below; each comes with its answer.
O=C(O)C1CCCN(c2ccccc2Sc2ccc(C3CC3C(=O)NCCCN3CCCC3=O)c(Cl)c2Cl)C1 (stereo in doubt; 28); 199 nM
O=C(O)C1CCCN(c2ccccc2Sc2ccc(C3CC3C(=O)NCCCN3CCCC3=O)c(Cl)c2Cl)C1 (stereo in doubt; 27); 210 nM
CC(C)c1ccccc1Sc1ccc(C2CC2C(=O)N2CCCCC2C(=O)O)c(Cl)c1Cl (stereo in doubt; 16a); 8820 nM
O=C(O)C1CCCN(c2ccccc2Sc2ccc(C3CC3C(=O)NCCCN3CCCC3=O)c(Cl)c2Cl)C1 (stereo in doubt; 30); 133 nM

Input: Report IC80, nothing else, for this compound: O=C(O)C1CCCN(c2ccccc2Sc2ccc(C3CC3C(=O)NCCCN3CCCC3=O)c(Cl)c2Cl)C1 (stereo in doubt; 29)
Output: 3200 nM

###

Measured IC70, listed per entry for reference.
target: Intercellular adhesion molecule (ICAM-1), Integrin alpha-L/beta-2 (Homo sapiens) (UniProt P20701+P05362+P05107); details: JY-8
Description: 70% inhibition of JY-8 cell adhesion to ICAM-1 via leukocyte function-associated antigen-1 (LFA-1) without serum
Reply with a number, then the unit it belongs to.

Please review the entries below; each comes with its answer.
O=C(O)C1CCCN(c2ccccc2Sc2ccc(C3CC3C(=O)NCCCN3CCCC3=O)c(Cl)c2Cl)C1 (stereo in doubt; 28); 21 nM
CC(C)c1ccccc1Sc1ccc(C2CC2C(=O)NCC(=O)O)c(Cl)c1Cl (stereo in doubt; 13a); 50 nM
CC(C)c1ccccc1Sc1ccc(C2CC2C(=O)NCCC(=O)O)c(Cl)c1Cl (stereo in doubt; 14a); 26 nM

Now consider the entry below.
Input: Report IC70, nothing else, for this compound: CC(C)c1ccccc1Sc1ccc(C2CC2C(=O)NCCCC(=O)O)c(Cl)c1Cl (stereo in doubt; 15a)
Output: 16 nM

###

assay: Cmax of compound at 5 mg/kg after po administration was determined in rat; assay type: ADME, organism-based; parameters: dose 5 mg/kg, route oral; conditions: in vivo
Measured parameter: Cmax (ng/mL)
Enter your answer as a number in ng/mL; do not include the unit.

Input: Report Cmax, nothing else, for this compound: O=C(O)C1CCCN(c2ccccc2Sc2ccc(C3CC3C(=O)NCCCN3CCCC3=O)c(Cl)c2Cl)C1 (stereo in doubt; 28)
Output: 350

###

target: Intercellular adhesion molecule (ICAM-1), Integrin alpha-L/beta-2 (Homo sapiens, UniProt P05107+P20701); assay: 50% inhibition of JY-8 cell adhesion to ICAM-1 via leukocyte function-associated antigen-1 (LFA-1) with 50% FBS; format: cell-based
Measured IC50, listed per entry for reference.
Enter your answer as a number in nM; do not include the unit.

O=C(O)C1CCCN(c2ccccc2Sc2ccc(C3CC3C(=O)NCCCN3CCCC3=O)c(Cl)c2Cl)C1 (stereo in doubt; 30); 27

Input: Report IC50, nothing else, for this molecule: O=C(O)C1CCCN(c2ccccc2Sc2ccc(C3CC3C(=O)NCCCN3CCCC3=O)c(Cl)c2Cl)C1 (stereo in doubt; 29)
Output: 640

Input: Report IC50, nothing else, for this molecule: O=C(O)C1CCCN(c2ccccc2Sc2ccc(C3CC3C(=O)NCCCN3CCCC3=O)c(Cl)c2Cl)C1 (stereo in doubt; 28)
Output: 29

Input: Report IC50, nothing else, for this molecule: CC(C)c1ccccc1Sc1ccc(C2CC2C(=O)N2CCCCC2C(=O)O)c(Cl)c1Cl (stereo in doubt; 16a)
Output: 1480

Input: Report IC50, nothing else, for this molecule: O=C(O)C1CCCN(c2ccccc2Sc2ccc(C3CC3C(=O)NCCCN3CCCC3=O)c(Cl)c2Cl)C1 (stereo in doubt; 27)
Output: 33

###

biological target: Intercellular adhesion molecule (ICAM-1), Integrin alpha-L/beta-2 (Homo sapiens) (UniProt P20701+P05362+P05107); settings: JY-8
Description: 70% inhibition of JY-8 cell adhesion to ICAM-1 via leukocyte function-associated antigen-1 (LFA-1) with 50% FBS
Measured parameter: IC70 (nM)
Enter your answer as a number in nM; do not include the unit.

Input: Report IC70, nothing else, for this compound: O=C(O)C1CCCN(c2ccccc2Sc2ccc(C3CC3C(=O)NCCCN3CCCC3=O)c(Cl)c2Cl)C1 (stereo in doubt; 28)
Output: 116

Input: Report IC70, nothing else, for this compound: O=C(O)C1CCCN(c2ccccc2Sc2ccc(C3CC3C(=O)NCCCN3CCCC3=O)c(Cl)c2Cl)C1 (stereo in doubt; 30)
Output: 89

Input: Report IC70, nothing else, for this compound: O=C(O)C1CCCN(c2ccccc2Sc2ccc(C3CC3C(=O)NCCCN3CCCC3=O)c(Cl)c2Cl)C1 (stereo in doubt; 29)
Output: 2100

Input: Report IC70, nothing else, for this compound: CC(C)c1ccccc1Sc1ccc(C2CC2C(=O)N2CCCCC2C(=O)O)c(Cl)c1Cl (stereo in doubt; 16a)
Output: 3520

Input: Report IC70, nothing else, for this compound: O=C(O)C1CCCN(c2ccccc2Sc2ccc(C3CC3C(=O)NCCCN3CCCC3=O)c(Cl)c2Cl)C1 (stereo in doubt; 27)
Output: 120

###

experiment: Half life of compound at 5 mg/kg after po administration was determined in rat; format: ADME, organism-based; parameters: dose 5 mg/kg, route oral; details: in vivo
Measured parameter: half-life

Input: Report half-life, nothing else, for this molecule: O=C(O)C1CCCN(c2ccccc2Sc2ccc(C3CC3C(=O)NCCCN3CCCC3=O)c(Cl)c2Cl)C1 (stereo in doubt; 28)
Output: 1.2 h

###

target: Intercellular adhesion molecule (ICAM-1), Integrin alpha-L/beta-2 (Homo sapiens, UniProt P05107+P20701); experiment: Ability to block the adherence of leukocyte function-associated antigen-1 (LFA-1) expressing JY-8 cells and intercellular adhesion molecule (ICAM-1) by 50% in absence of serum; type: cell-based
Categorize each record by its IC50 using 0 (below 10 nM), 1 (10 nM to below 30 nM), 2 (30 nM or more)

Please review the entries below; each comes with its answer.
CC(C)c1ccccc1Sc1ccc(C2CC2C(=O)NCCC(=O)O)c(Cl)c1Cl (single isomer, unassigned); 2
CCOC(=O)C1CCN(c2ccccc2Sc2ccc(C3CC3C(=O)NCCCN3CCCC3=O)cc2C(F)(F)F)CC1 (stereo unspecified); 2
CC(C)c1ccccc1Sc1ccc(C2CC2C(=O)NCCCC(=O)O)c(Cl)c1Cl (stereo in doubt; 15a); 0
CC(C)c1ccccc1Sc1ccc(C2CC2C(=O)NCCCN2CCCC2=O)c(Cl)c1Cl (stereo in doubt; 12a); 0
CC(C)c1ccccc1Sc1ccc(C2CC2C(=O)NCC(=O)O)c(Cl)c1Cl (single isomer, unassigned); 2
CC(C)c1ccccc1Sc1ccc(C2CC2C(=O)NCCCN2CCCC2=O)c(Cl)c1Cl (stereo in doubt); 0
CC(C)c1ccccc1Sc1ccc(C2CC2C(=O)N2CCC(C(=O)O)CC2)c(Cl)c1Cl (single isomer, unassigned); 1
O=C(O)C1CCCN(c2ccccc2Sc2ccc(C3CC3C(=O)NCCCN3CCCC3=O)c(Cl)c2Cl)C1 (stereo in doubt; 29); 2

Input: Class (by measured IC50) for O=C(O)C1CCCN(c2ccccc2Sc2ccc(C3CC3C(=O)NCCCN3CCCC3=O)cc2C(F)(F)F)C1 (stereo unspecified)
Output: 2

Input: Class (by measured IC50) for CC(C)c1ccccc1Sc1ccc(C2CC2C(=O)N2CCCCC2C(=O)O)c(Cl)c1Cl (stereo in doubt; 16a)
Output: 1

Input: Class (by measured IC50) for CC(C)c1ccccc1Sc1ccc(C2CC2C(=O)N2CCCC(C(=O)O)C2)c(Cl)c1Cl (stereo in doubt; 17a)
Output: 0

Input: Class (by measured IC50) for O=C(NCCCN1CCCC1=O)C1CC1c1ccc(Sc2ccccc2N2CCCCC2)c(C(F)(F)F)c1 (stereo unspecified)
Output: 2

Input: Class (by measured IC50) for CC(C)c1ccccc1Sc1ccc(C2CC2C(=O)NCCCC(=O)O)c(Cl)c1Cl (stereo in doubt)
Output: 1

Input: Class (by measured IC50) for O=C(O)C1CCN(c2ccccc2Sc2ccc(C3CC3C(=O)NCCCN3CCCC3=O)cc2C(F)(F)F)CC1 (stereo unspecified)
Output: 2

Input: Class (by measured IC50) for CC(C)c1ccccc1Sc1ccc(C2CC2C(=O)NCCC(=O)O)c(Cl)c1Cl (stereo in doubt; 14a)
Output: 0

Input: Class (by measured IC50) for O=C(NCCCN1CCCC1=O)C1CC1c1ccc(Sc2ccccc2N2CCCC2)c(C(F)(F)F)c1 (stereo unspecified)
Output: 2
